Target: rat histamine H3 receptor (Rattus norvegicus, UniProt Q9QYN8)
Construct: encoding the entire 445-amino-acid rat histamine H3 receptor; expressed in transfected cells
Sequence (Q9QYN8 whole entry): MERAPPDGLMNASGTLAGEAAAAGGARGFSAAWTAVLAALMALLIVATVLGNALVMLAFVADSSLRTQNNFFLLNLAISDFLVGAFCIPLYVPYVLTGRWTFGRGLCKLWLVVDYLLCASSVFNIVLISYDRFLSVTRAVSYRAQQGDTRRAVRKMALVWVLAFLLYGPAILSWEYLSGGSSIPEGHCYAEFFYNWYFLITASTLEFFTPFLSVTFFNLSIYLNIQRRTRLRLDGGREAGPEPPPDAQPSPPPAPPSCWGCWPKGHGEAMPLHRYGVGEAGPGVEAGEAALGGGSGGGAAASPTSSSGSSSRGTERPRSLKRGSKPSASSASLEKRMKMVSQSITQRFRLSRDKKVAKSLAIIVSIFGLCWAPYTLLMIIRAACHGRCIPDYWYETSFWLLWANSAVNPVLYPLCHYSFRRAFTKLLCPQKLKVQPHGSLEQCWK
Experiment: Rat H3 radioligand binding ([3H]-N-alpha-methylhistamine, SPA)
Details: membranes of CHO-A3 cells expressing rat H3; [3H]-N-alpha-methylhistamine; read-out: Rat H3 Ki
pKi: −log10 of the molar value.
MEASURE NAME: pKi

Input: Query (compound): C[C@@H]1CCCN1CCCOc1ccc(C(=O)CN2CCN(C(=O)C3CC3)CC2)cc1 ; field requested: pKi
Output: 7.00 to 10.00

Input: Query (compound): CC(C)C(=O)N1CCN(CC(=O)c2ccc(OCCCN3CCC[C@H]3C)c(Cl)c2)CC1 ; field requested: pKi
Output: 7.00 to 10.00

Input: Query (compound): CC(C)N1CCC(Oc2ccc(C(=O)CN3CCCC(F)(F)C3)cc2)CC1 ; field requested: pKi
Output: 6.30 to 7.00

Input: Query (compound): CC(C)C(=O)N1CCN(CC(=O)c2ccc(OCCCN3CCC[C@H]3C)cc2)CC1 ; field requested: pKi
Output: 7.00 to 10.00

Input: Query (compound): C[C@@H]1CCCN1CCCOc1ccc(/C(CN2CCCCC2=O)=N/OC(C)(C)C)cc1 ; field requested: pKi
Output: 7.00 to 10.00

Input: Query (compound): C[C@@H]1CCCN1CCCOc1ccc(C(=O)CN2CCN(C(=O)OCc3ccccc3)CC2)cc1 ; field requested: pKi
Output: 7.00 to 10.00

Input: Query (compound): C[C@@H]1CCCN1CCCOc1ccc(C(=O)CN2CCCCC2)cc1 ; field requested: pKi
Output: 7.00 to 10.00

Input: Query (compound): C[C@@H]1CCCN1CCCOc1ccc(C(=O)CN2CCN(C(=O)c3ccccc3)CC2)cc1Cl ; field requested: pKi
Output: 7.00 to 10.00

Input: Query (compound): C[C@@H]1CCCN1CCCOc1ccc(C(=O)CN2CCN(c3ncccn3)CC2)cc1F ; field requested: pKi
Output: 7.00 to 10.00

Input: Query (compound): C[C@@H]1CCCN1CCCOc1ccc(C(=O)CN2CCN(S(C)(=O)=O)CC2)cc1 ; field requested: pKi
Output: 7.00 to 10.00

Input: Query (compound): CC(=O)N1CCN(CC(=O)c2cc(Cl)c(OCCCN3CCC[C@H]3C)c(Cl)c2)CC1 ; field requested: pKi
Output: 6.30 to 7.00

Input: Query (compound): CC1CCCN1CCCOc1ccc(C(CN2CCOCC2)=NOC(C)(C)C)cc1 (racemic) ; field requested: pKi
Output: 7.00 to 10.00

Input: Query (compound): C[C@@H]1CCCN1CCCOc1ccc(C(=O)CN2CCO[C@H](c3ccccc3)C2)cc1 ; field requested: pKi
Output: 7.00 to 10.00

Input: Query (compound): C[C@@H]1CCCN1CCCOc1ccc(C(=O)CN2CCN(C(=O)C(F)(F)F)CC2)cc1 ; field requested: pKi
Output: 7.00 to 10.00

Input: Query (compound): C[C@@H]1CCCN1CCCOc1ccc(C(=O)CN2CCN(C(=O)c3cccn3C)CC2)cc1 ; field requested: pKi
Output: 7.00 to 10.00

Input: Query (compound): C[C@@H]1CCCN1CCCOc1ccc(C(=O)CN2CCC(C#N)CC2)cc1 ; field requested: pKi
Output: 7.00 to 10.00

Input: Query (compound): C[C@@H]1CCCN1CCCOc1ccc(C(=O)CN2Cc3ccccc3C2)cc1 ; field requested: pKi
Output: 7.00 to 10.00
